Species: Cavia porcellus
EXPERIMENTAL DETAILS: Selectivity ratio of Ki for sigma 1 receptor in guinea pig brain membrane without cerebellum to Ki for EBP in guinea pig liver membrane
Format: cell membranes
Note to self: values exactly at 4 are yes. So Ratio Ki at or above 4 is yes, below is no.

Q: Is reported Ratio Ki greater than or equal to 4 here: Fc1cccc(F)c1[C@H]1CC[C@@H](N2CCN(c3ccccn3)CC2)CC1
Ans: yes

Q: Is reported Ratio Ki greater than or equal to 4 here: Fc1cccc(F)c1[C@H]1CC[C@H](N2CCN(c3ccccn3)CC2)CC1
Ans: no

Q: Is reported Ratio Ki greater than or equal to 4 here: c1ccc([C@H]2CC[C@H](N3CCN(c4ccccn4)CC3)CC2)cc1
Ans: yes

Q: Is reported Ratio Ki greater than or equal to 4 here: COc1ccccc1[C@H]1CC[C@@H](N2CCN(c3ccccn3)CC2)CC1
Ans: yes

Q: Is reported Ratio Ki greater than or equal to 4 here: Cc1cccc(C)c1C1=CCC(N2CCN(c3ccccn3)CC2)CC1 (racemic)
Ans: no
